# Test system: SK-MEL-28 melanoma
# measurementProtocol: NCI tumour cell line growth inhibition, 48 h
reportedMetric: TGI

compound | assayResult
CN1C2CCC1CC(CCOC(c1ccc(F)cc1)c1ccc(F)cc1)C2 (stereo not given) | 31.7 µM
CC(C)(C)O/C=C1/C(=O)OC2C[C@@H](O[Si](C)(C)C(C)(C)C)CC12 (stereo not given in full) | > 100 µM
Nc1nc(Cl)c(N)c(NCC2(CO)CCC2)n1 | > 100 µM
O=C(O)c1ccc(P(=O)(O)c2ccc(C(=O)O)cc2Br)c(Br)c1 | > 100 µM
CC(C)(C#N)c1cc(Cn2cncn2)cc(C(C)(C)C#N)c1 | > 10000 µM
NC(=O)C(=Cc1ccc(C(O)P(=O)(O)O)cc1)C(N)=O (stereo not given) | > 100 µM
COc1cccc(OC/C(N=Cc2cccnc2)=N/NC(=O)c2ccncc2)c1 | > 100 µM
CC12CCC3[C@@H](CC3(C)C)C(O)(CCC1=O)C2 (stereo not given in full) | > 100 µM
COc1cc(OC)c(/C=C/S(=O)(=O)Cc2cnc(OC)c(N)c2)c(OC)c1 | > 100 µM
Cc1cc([C@H](C#N)c2nc3ccccc3[nH]2)nc(Cl)n1 | > 100 µM
CC(=O)N1C(=O)CC2(N=C(C)CC2=O)c2ccccc21 (stereo not given) | > 10 µM
CSc1nc(C)c2c(n1)SCC2 | > 10 µM
CCOC(=O)C(Cl)(NC(=O)NC(Cl)(C(=O)OCC)C(F)(F)F)C(F)(F)F (stereo not given) | > 100 µM
CC(=O)CC(=O)Nc1ccc2ccccc2c1 | > 100 µM
CN[C@@H](C)C(=O)N[C@H](C(=O)N1CCC[C@H]1C(=O)N[C@H]1c2ccccc2C[C@H]1OCC#CC#CCO[C@@H]1Cc2ccccc2[C@@H]1NC(=O)[C@@H]1CCCN1C(=O)[C@@H](NC(=O)[C@H](C)NC)C1CCCCC1)C1CCCCC1 | 3.55 µM
COC(=O)C1C(C(=O)OC)C2(OC)c3ccccc3-c3ccccc3C12 (stereo not given) | > 100 µM
CC/C(C)=C1\CCC(CN2CCOCC2)C1=O (stereo not given) | 32 µM
CCN1CCN(C(=O)[C@]23CC[C@@H](C)[C@H](C)[C@@H]2C2=CC[C@@H]4[C@@]5(C)C/C(=C/c6ccncc6)C(=O)C(C)(C)[C@@H]5CC[C@@]4(C)[C@]2(C)CC3)CC1 | 3.03 µM
CNc1c2cccc(C)c2nc2c(C(=O)NCCN(C)C)cccc12 | 1.17 µM
COc1cc(Cl)c2c3c(c(C(C)=O)oc13)CCC2 | > 100 µM
